Would you kindly list pIC50 for each of these compounds?
System: Ub-PCNA levels in the nucleus of ES2 cells (USP1 activity)
test-description: ES2 Ub-PCNA immunofluorescence (IF) assay
Assay type: cell-based
measurement-parameters: Homo sapiens, ES-2; ES2 cells, 3 hours, Ub-PCNA immunofluorescence; read-out: USP1 IC50 (Ub-PCNA)
pIC50: −log10 of the molar value.

Prompt line: Indicate its recorded pIC50; the compound in question is CC(C)n1ncc(Cl)c1-c1cc2n(n1)CCC(=O)N2Cc1ccc(-c2nc(C(F)(F)F)cn2C)c(F)c1
Response line: > 7.00

Prompt line: Report pIC50, nothing else, for this compound: COc1ncnc(C2CC2)c1-c1nc2n(n1)CCC(=O)N2[C@H](C)c1ccc(-c2nc(C(F)(F)F)cn2C(C)C)c(F)c1
Response line: > 7.00

Prompt line: Output pIC50 of CCn1cc(C(F)(F)F)nc1-c1ccc(CN2C(=O)CCn3nc(-c4c(Cl)cnn4C(C)C)cc32)cc1
Response line: > 7.00

Prompt line: Let me know recorded pIC50 for COc1cccc(C)c1-c1cc2n(n1)CCC(=O)N2Cc1ccc(-c2nc(C(F)(F)F)cn2C)cc1 , thanks.
Response line: 6.30 to 7.00

Prompt line: Return pIC50 for the following compound: COc1ncnc(C2CC2)c1-c1cc2n(n1)CCC(=O)N2Cc1ccc(-c2nc(C(F)(F)F)cn2C(C)C)cc1
Response line: 6.30 to 7.00

Prompt line: State its pIC50 for this compound: COc1cccnc1-c1ccc(CN2C(=O)CCn3nc(-c4c(Cl)cnn4C(C)C)cc32)cc1
Response line: 6.30 to 7.00

Prompt line: Fill in pIC50 for record CC(C)Oc1cccnc1-c1ccc(CN2C(=O)CCn3nc(-c4c(Cl)cnn4C(C)C)nc32)cc1
Response line: 6.30 to 7.00
